measured.on: MCL-1 (Homo sapiens, UniProt Q07820)
Sequence (Q07820 whole entry): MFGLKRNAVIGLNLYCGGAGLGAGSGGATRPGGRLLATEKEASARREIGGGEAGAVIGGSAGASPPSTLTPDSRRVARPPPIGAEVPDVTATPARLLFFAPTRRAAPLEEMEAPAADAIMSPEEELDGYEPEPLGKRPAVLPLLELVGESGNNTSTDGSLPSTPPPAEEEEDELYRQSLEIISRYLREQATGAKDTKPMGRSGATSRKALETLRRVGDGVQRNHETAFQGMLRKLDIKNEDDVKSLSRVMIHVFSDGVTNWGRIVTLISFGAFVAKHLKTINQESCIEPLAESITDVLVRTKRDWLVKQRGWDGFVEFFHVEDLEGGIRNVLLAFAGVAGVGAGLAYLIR
experimental.details: Protein-protein interaction assay MCL-1/Noxa BH3 peptide (MCL-1 assay), TR-FRET
Format: binding
measurement.context: MBP-MCL-1 / Noxa BH3-derived peptide, median
assay.endpoint: IC50 (nM)
Quick note: give the figure in nM, leave out the unit.

[[record]]
compound = "CN1CCCn2c(C(=O)O)c(CCCOc3cccc4ccccc34)c3cccc(c32)-c2c(COc3ccc(N4CCN(S(=O)(=O)N(C)C)CC4)cc3)nn(C)c2C1 (single isomer, unassigned; enantiomer 2) [Example 1-16]"
measured_on = "MCL-1 (Homo sapiens, UniProt Q07820)"
test_value = 84.8

[[record]]
compound = "COc1ccc(OCc2nn(C)c3c2-c2cccc4c(CCCOc5cccc6ccccc56)c(C(=O)O)n(c24)CCCCOC3)cc1 (single isomer, unassigned; enantiomer 2) [Example 321]"
measured_on = "MCL-1 (Homo sapiens, UniProt Q07820)"
test_value = 639


With those in mind, consider the next compound.
Q: Fill in the blank: the reported IC50 of COCCn1nc(C2CC2)c2c1COCCCCn1c(C(=O)O)c(CCCOc3cccc4c3CCCC4)c3cccc-2c31 (single isomer, unassigned; enantiomer 1) [Example 165] is ____.
Ans: 2.89

====

measured.on: UniProt:Q07820
experimental.details: Protein-protein interaction assay MCL-1/Noxa BH3 peptide (MCL-1 assay), TR-FRET
Assay type: binding
measurement.context: MBP-MCL-1 / Noxa BH3-derived peptide, median
assay.endpoint: IC50 (nM)
Quick note: give the figure in nM, leave out the unit.

[[record]]
compound = "Cc1nn(C)c2c1-c1cccc3c(CCCOc4cccc5c4CCCC5)c(C(=O)O)n(c13)CCCOC2 (racemic)"
measured_on = "UniProt:Q07820"
unit_label = "nM"
test_value = 66

[[record]]
compound = "Cc1ccc2c(C(C)CCOc3cccc4cc(F)ccc34)c(C(=O)O)n3c2c1-c1c(nn(C)c1C)COCCCC3 (racemic) [Example 276]"
measured_on = "UniProt:Q07820"
unit_label = "nM"
test_value = 7.56


Q: Fill in the blank: the reported IC50 of Cn1nc(COc2ccc(C3(O)CCOCC3)cc2)c2c1COCC=CCn1c(C(=O)O)c(CCCOc3cccc4ccccc34)c3cccc-2c31 (racemic) is ____.
Ans: 17.1

====

System: SUDHL5
experimental.details: Induction of cytotoxicity (CellTiter-Glo, 5 h), SUDHL5
measurement.context: read-out: Cytotox SUDHL5 [M] (median); SUDHL5 cells, cytotoxicity induction, CellTiter-Glo, 5 h incubation, median
Readings of log10 of IC50 for the listed molecules
Hi team, quick reminder: these entries are log10 of IC50 (M).

Answered cases to consult:
[[record]]
molecule = "CCc1nn(CCN2CCOCC2)c2c1-c1cccc3c(CCCOc4cccc5ccccc45)c(C(=O)O)n(c13)CCCCOC2 (single isomer, unassigned; enantiomer 1) [Example 199]"
measured_on = "SUDHL5"
test_value = -6.03

[[record]]
molecule = "CCc1c2c(nn1C)COCCCCn1c(C(=O)O)c(CCCOc3cccc4cc(F)ccc34)c3cccc-2c31 (single isomer, unassigned) [Example 282]"
measured_on = "SUDHL5"
test_value = -6.21

[[record]]
molecule = "Cn1nc(COc2ccc(N3CCN(C(=O)C4CC4)CC3)cc2)c2c1COCCCCn1c(C(=O)O)c(CCCOc3cccc4ccccc34)c3cccc-2c31 (single isomer, unassigned; enantiomer 1) [Example 1-22]"
measured_on = "SUDHL5"
test_value = -5.86

[[record]]
molecule = "Cn1nc(COc2cncnc2)c2c1COCCCCn1c(C(=O)O)c(CCCOc3cccc4ccccc34)c3cccc-2c31 (single isomer, unassigned) [Example 212]"
measured_on = "SUDHL5"
test_value = -5.18


Q: Fill in the blank: the reported log10 of IC50 of Cn1nc2c(c1OC(F)F)-c1cccc3c(CCCOc4cccc5ccccc45)c(C(=O)O)n(c13)CCCCOC2 (single isomer, unassigned) [Example 236] is ____.
Ans: -4.97

Q: Fill in the blank: the reported log10 of IC50 of Cn1nc2c(c1C(F)(F)F)-c1cccc3c(CCCOc4cccc5ccccc45)c(C(=O)O)n(c13)CCCCOC2 (single isomer, unassigned; enantiomer 1) [Example 194] is ____.
Ans: -5.26

Q: Fill in the blank: the reported log10 of IC50 of COCCn1nc2c(c1C1CC1)-c1cccc3c(CCCOc4cccc5ccccc45)c(C(=O)O)n(c13)CCCCOC2 (single isomer, unassigned; enantiomer 2) [Example 086] is ____.
Ans: -4.50
